Tested on: Echinochloa crus-galli
Assay name: Herbicidal activity against Echinochloa crus-galli (barnyard grass) assessed as inhibition of plant growth at 187.5 g/ha applied as pre-emergence treatment
Type: functional
Measurement conditions: Echinochloa crus-galli, pre-emergence
Observable: inhibition at 187.5 g/ha

COc1ccccc1/C(O)=C1\C(=O)CN(C(C)C)C1=O	0%
CS(=O)(=O)c1ccc(C(=O)C2C(=O)CCCC2=O)c(Cl)c1	93%
COc1ccc(/C(O)=C2\C(=O)CN(C(C)(C)C)C2=O)cc1	0%
CCOc1ccc(/C(O)=C2\C(=O)CN(C(C)CC)C2=O)cc1 (configuration not stated)	28%
C=CCOc1ccc(/C(O)=C2\C(=O)CN(C(C)C)C2=O)cc1	55%

Challenge: What inhibition at 187.5 g/ha value was documented for this compound, CCC(C)N1CC(=O)/C(=C(/O)c2ccc(OC)cc2OC)C1=O (configuration not stated) ?
Response given: 14%

Challenge: Give the measured inhibition at 187.5 g/ha of O=C1CN(Cc2ccccc2)C(=O)/C1=C(\O)c1ccccc1 .
Response given: 0%

---

System: Digitaria sanguinalis
Assay name: Herbicidal activity against Digitaria sanguinalis (hairy crabgrass) assessed as inhibition of plant growth at 750 g/ha applied as pre-emergence treatment
Format: functional
Measurement conditions: Digitaria sanguinalis, pre-emergence
Observable: inhibition at 750 g/ha (%)
Number in %, nothing else.

// worked examples, inhibition at 750 g/ha included
CCC(C)N1CC(=O)/C(=C(/O)c2ccc(OC)cc2OC)C1=O (centres undefined)	80
C=CCOc1ccc(/C(O)=C2\C(=O)CN(C(C)C)C2=O)cc1	79
CS(=O)(=O)c1ccc(C(=O)C2C(=O)CCCC2=O)c(Cl)c1	100

Here is the next item to consider.
Challenge: For CCOc1ccc(/C(O)=C2\C(=O)CN(C(C)CC)C2=O)cc1 (centres undefined) , what is its reported inhibition at 750 g/ha?
Response given: 96

---

The following compounds are shown together with reported inhibition at 375 g/ha values.
Tested on: Echinochloa crus-galli
Assay name: Herbicidal activity against Echinochloa crus-galli (barnyard grass) assessed as inhibition of plant growth at 375 g/ha applied as pre-emergence treatment
Format: functional
Measurement conditions: Echinochloa crus-galli, pre-emergence
Just the number please, in %, no unit attached.

Challenge: // lookup inhibition at 375 g/ha for O=C1CN(Cc2ccccc2)C(=O)/C1=C(\O)c1ccccc1
Response given: 0

Challenge: Name the reported inhibition at 375 g/ha value associated with the compound CS(=O)(=O)c1ccc(C(=O)C2C(=O)CCCC2=O)c(Cl)c1
Response given: 100

Challenge: Give the measured inhibition at 375 g/ha of CCC(C)N1CC(=O)/C(=C(/O)c2ccc(OC)cc2OC)C1=O (configuration not stated) .
Response given: 76

Challenge: Request the reported inhibition at 375 g/ha associated with C=CCOc1ccc(/C(O)=C2\C(=O)CN(C(C)C)C2=O)cc1
Response given: 95

Challenge: Looking for the measured inhibition at 375 g/ha of COc1ccc(/C(O)=C2\C(=O)CN(C(C)(C)C)C2=O)cc1 , can you help?
Response given: 0

Challenge: Quick check: inhibition at 375 g/ha of CCOc1ccc(/C(O)=C2\C(=O)CN(C(C)CC)C2=O)cc1 (configuration not stated) ?
Response given: 82

Challenge: Which value of inhibition at 375 g/ha has been reported for COc1ccccc1/C(O)=C1\C(=O)CN(C(C)C)C1=O in the records?
Response given: 28
